molecular target: full-length beta-Catenin (Uniprot ID P35222) (Homo sapiens (Human)) (UniProt P35222); experiment: fluorescence polarization competition; 5FAM-TCF4(10-53) probe displaced from full-length beta-catenin
Sequence (P35222 2-781 limits assumed): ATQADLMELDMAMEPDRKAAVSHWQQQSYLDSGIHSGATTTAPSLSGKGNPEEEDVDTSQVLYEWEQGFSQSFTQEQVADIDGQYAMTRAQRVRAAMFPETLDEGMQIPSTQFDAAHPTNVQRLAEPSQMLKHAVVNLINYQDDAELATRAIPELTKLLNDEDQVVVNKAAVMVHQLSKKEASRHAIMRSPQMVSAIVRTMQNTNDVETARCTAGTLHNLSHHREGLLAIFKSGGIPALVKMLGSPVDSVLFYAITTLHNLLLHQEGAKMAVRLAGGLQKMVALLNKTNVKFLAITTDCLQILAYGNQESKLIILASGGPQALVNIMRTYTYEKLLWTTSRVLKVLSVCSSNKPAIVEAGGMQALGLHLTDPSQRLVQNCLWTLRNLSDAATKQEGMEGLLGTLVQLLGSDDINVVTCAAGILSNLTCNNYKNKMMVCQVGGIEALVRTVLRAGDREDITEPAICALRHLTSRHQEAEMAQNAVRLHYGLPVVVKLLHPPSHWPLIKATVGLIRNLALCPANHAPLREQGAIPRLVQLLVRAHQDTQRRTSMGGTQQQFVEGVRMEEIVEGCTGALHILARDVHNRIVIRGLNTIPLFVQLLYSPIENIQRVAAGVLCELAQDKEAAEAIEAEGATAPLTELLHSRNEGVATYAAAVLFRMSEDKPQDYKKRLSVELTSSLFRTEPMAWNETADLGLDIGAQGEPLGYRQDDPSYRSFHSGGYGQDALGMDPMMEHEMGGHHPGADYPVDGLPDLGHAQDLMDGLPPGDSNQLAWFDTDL
Starred links: 1 amine or outer side, 2 acyl side, 3 side chain; linkers in the order of their positions; H or OH if unused. Positions of bridges follow the written chain, without caps; N, C: chain ends. Non-standard residues stand in square brackets, D forms with d. Primed or numbered codes have the meaning given here. PyrS2″ = (S)-3-amino-1-((pent-4-en-1-yloxy)carbonyl)pyrrolidine-3-carboxylic acid (stapling residue), C=CCCCOC(=O)N1CC[C@@](N[*:1])(C(=O)[*:2])C1; B5(4) = 2,2-bis(4-pentenyl)glycine = 2-amino-2-(pent-4-en-1-yl)hept-6-enoic acid (stitching residue), C=CCCCC(CCCC=C)(N[*:1])C(=O)[*:2]; B5(5) = 2,2-bis(4-pentenyl)glycine, 2-amino-2-(pent-4-en-1-yl)hept-6-enoic acid (stitching residue), C=CCCCC(CCCC=C)(N[*:1])C(=O)[*:2]; PyrS2 = (S)-3-amino-1-((pent-4-en-1-yloxy)carbonyl)pyrrolidine-3-carboxylic acid, C=CCCCOC(=O)N1CC[C@@](N[*:1])(C(=O)[*:2])C1; Phe(2-Cl) = N[C@@H](Cc1ccccc1Cl)C(=O)O; Bta = N[C@@H](Cc1csc2ccccc12)C(=O)O; αAllylPro = C=CC[C@@]1(C(=O)O)CCCN1; tBuAla = CC(C)(C)C[C@H](N)C(=O)O; 3Thi = N[C@@H](Cc1ccsc1)C(=O)O
Below, each entry is listed alongside its reported IC50.
I only need the number, in nM, no unit after it.

Ac-[αAllylPro]D[tBuAla][B5(4)]DDAAFL[PyrS2][3Thi]WQ-NH2 (staple 1-4, 4-11) [I-1431] :: 44

# evaluate next
Query: Need IC50, item Ac-[αAllylPro]D[tBuAla][B5(5)]DDAAFL[PyrS2″][Phe(2-Cl)][Bta]L-NH2 (staple 1-4, 4-11; also: staple isomer, earlier eluting HPLC peak) [I-1416]
Result: 57
